Target: Somatostatin Receptor 2 (SSTR2) (Homo sapiens, UniProt P30874)
Sequence (P30874 whole entry, species assumed): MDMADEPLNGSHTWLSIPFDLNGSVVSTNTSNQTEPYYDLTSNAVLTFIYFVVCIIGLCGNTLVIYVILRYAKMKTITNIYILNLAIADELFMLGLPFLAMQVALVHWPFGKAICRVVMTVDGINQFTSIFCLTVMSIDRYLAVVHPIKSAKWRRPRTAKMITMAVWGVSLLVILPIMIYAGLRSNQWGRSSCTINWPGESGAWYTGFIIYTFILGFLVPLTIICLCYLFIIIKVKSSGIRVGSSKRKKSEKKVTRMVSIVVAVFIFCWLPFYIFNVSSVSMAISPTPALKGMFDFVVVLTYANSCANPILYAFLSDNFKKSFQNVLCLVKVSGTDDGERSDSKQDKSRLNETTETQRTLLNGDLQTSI
Test: Biochemical Assay for Activation of Somatostatin Receptor 2 (SSTR2), Cisbio HTRF cAMP assay
Conditions: average pEC50; HTRF cAMP assay in stably-transfected cell line expressing SSTR2; cells incubated with compounds for 1-2h
readout kind: EC50 (nM)
Write it as a number; the unit nM goes unstated.

# count of solved cases: 8
[
  {
    "molecule": "Cc1cc(C)cc(-c2cnc3c(c2N2CC[C@@H](N)C2)C(=O)N(c2cc(C)cc(C)c2)CC3)c1",
    "EC50 [nM]": 1000
  },
  {
    "molecule": "Cc1cc(F)cc(-c2cnc(Cl)c(-c3nc4cc(F)c(F)cc4[nH]3)c2N2CCC(N)CC2)c1",
    "EC50 [nM]": 0.0794
  },
  {
    "molecule": "COc1cc(F)cc(-c2cnc3c(nc(-c4cccc(C#N)c4O)n3C)c2N2CCC(N)CC2)c1",
    "EC50 [nM]": 501
  },
  {
    "molecule": "Cc1cc(F)cc(-c2cnc3ccc(-c4cc(F)cc(C(N)=O)c4)cc3c2O[C@@H]2CC[C@H](N)C2)c1",
    "EC50 [nM]": 1
  },
  {
    "molecule": "COc1cc(F)cc(-c2cnc3c(nc(-c4cc(F)cc(C(N)=O)c4)n3C)c2N2CC[C@@H](N)[C@H](OC)C2)c1",
    "EC50 [nM]": 1000
  },
  {
    "molecule": "CC(N)CCN1Cc2ccc(F)cc2-c2cncc(C(=O)Nc3ccc(F)c(F)c3)c21 (centres unmarked)",
    "EC50 [nM]": 200
  },
  {
    "molecule": "Cc1cc(F)cc(-c2cnc3[nH]c(-c4ccc5[nH]c(=O)[nH]c5c4)nc3c2N2CCC(N)CC2)c1",
    "EC50 [nM]": 631
  },
  {
    "molecule": "Cc1cc(F)cc(-c2cnc3ccc4cc3c2N2CCC(CC2)NCCCCOc2c(C(N)=O)cccc2-4)c1",
    "EC50 [nM]": 0.251
  }
]

GET /values?readout=EC50&item= `COc1cc(F)cc(-c2cnc3ccc(-c4cccc(C#N)c4O)cc3c2O[C@@H]2CC[C@H](N)C2)c1`
20

# query: EC50 of entry `NC1CCN(c2c(-c3cc(F)cc(F)c3)cnc3c(C(=O)O)cc(-c4cc(F)cc(F)c4)cc23)CC1`
0.398

Item under review: `NC1CCN(c2c(-c3cc(F)cc(F)c3)cnc3cc(-c4cc(F)cc(F)c4)sc23)CC1` . Reported EC50?
1580

Look at this molecule and give its reported EC50. Cc1cc(F)cc(-c2cnc3ccc4cc3c2N2CCC(CC2)NCC(N)CCOc2c(C#N)cccc2-4)c1 (centres unmarked)
7.94

Query (molecule): `N[C@H]1CC[C@@H](Oc2c(-c3cc(F)cc(F)c3)cnc3ccc(-c4cc(F)cc(F)c4)cc23)C1` ; field requested: EC50
100

// lookup EC50 for `NCCCN1Cc2ccc(F)cc2-c2cncc(-c3nc4cc(F)c(F)cc4[nH]3)c21`
126

Can you look up the measured EC50 of Cc1cc(F)cc(-c2cnc3ccc4cc3c2N2CCC(CC2)NC[C@@H](O)CCOc2c(C#N)cccc2-4)c1 (single isomer, unassigned) for me?
2510

Name the reported EC50 value associated with the molecule `Cc1cc(F)cc(-c2cnc3ccc(-c4cc(F)cc(C(N)=O)c4)cc3c2O[C@H]2C[C@@H](N)C2)c1`
12.6

Give its EC50 value. Item: `Cc1cc(F)cc(-c2cnc3ccc4cc3c2N2CCC(CC2)NCCCCOc2c(C#N)cccc2-4)c1`
0.0251

Given `N#Cc1cccc2c1OCCCCCNC1CCN(CC1)c1c(-c3cc(F)cc(F)c3)cnc3ccc-2cc13` , state its recorded EC50.
0.158
